- assay overview: NCI Yeast Anticancer Drug Screen. Data for the mlh1 strain (AID 171);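 note: 0% = growth of vehicle-treated control cultures of the same strain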
- experimental context: S. cerevisiae mlh1 strain growth inhibition; at 11.0 µM; stronger effect = higher value
Compounds without any hit were thinned out: in the full panel of roughly 79,000, 15% have a hit.
Quick reference: growth inhibition of the listed items.
# number only, unit % dropped from output

Worked examples follow.
{"compound": "CN(C)/C(=N/C(=S)Nc1ccccc1)SCc1ccccc1", "reading unit": "%", "growth inhibition": 3}
{"compound": "CC(C)(CN1CCCCC1)C(=O)CC(SCCS(=O)(=O)O)c1ccccc1 (stereo not drawn)", "reading unit": "%", "growth inhibition": 3}

Now look at this entry.
Query block: Param item = `Nc1ccc(/C=C/c2ccc3cccnc3c2)cc1` ; retrieve measured growth inhibition.
Result block: -1

---

- assay overview: NCI Yeast Anticancer Drug Screen. Data for the sgs1 mgt1 strain (AID 161);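 note: 0% = growth of cultures given vehicle only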
- experimental context: S. cerevisiae sgs1 mgt1 strain, at 50.0 µM, stronger effect = higher value
This is part of a sample that, as a whole, favours compounds with a hit. Of some 79,000 tested, about 15% had one in any assay.
Here the recorded growth inhibition is given for each entry.
Form entry: value (%) — number only.

Query block: Could you share which growth inhibition value was measured for `Cc1cc(OCc2nc(N)nc(N)c2-c2ccc(Cl)c(Cl)c2)ccc1[N+](=O)[O-]` ?
Result block: 98.7

Query block: Try this compound too: `Nc1ccc(/C=C/c2ccc3cccnc3c2)cc1`
Result block: 46.2

Query block: // same read-out, input: `CC1(C)CC(=O)C(/C=N/c2nc(-c3ccc(Br)cc3)cs2)=C(O)C1`
Result block: 99.2

Query block: Next record, please: `COC(=O)C(=O)c1c(-c2ccc(Cl)c(Cl)c2)[nH]c2[nH]n(-c3ccccc3)c(=O)c2c1=O`
Result block: 43

Query block: Item: `C/C(=N\Sc1ccccc1)c1ccccc1O`
Result block: 33.5

Query block: Could you do the same for `Cc1ccc(C)c(C(=N)c2ccccc2Cc2ccccc2)c1` , please?
Result block: 97.5

Query block: Likewise for COC1/C=C\C=C(/C)C(=O)NC2=CC(=O)C(=O)C(=C2O)CC(C)CC(OC)C(O)C(C)/C=C(\C)C1OC(N)=O (centres undefined) ?
Result block: 89.8

Query block: // query: `CC(C)(CN1CCCCC1)C(=O)/C=C/c1c(Cl)cccc1Cl`
Result block: 86.9

Query block: Then what about the compound `O=C1c2ccccc2-c2cc3ccccc3c(=O)n21` ?
Result block: 81

Query block: Also, C/C1=C/C2OC(=O)C3(C)C2C(CC2(C)OC1=CC2=O)OC3(O)C(C)C (centres undefined) please.
Result block: 82.4

Query block: Please do the same for CC1CCC(C2=CSC3CCCCC3N2)CC1 (centres undefined) as well.
Result block: 51.1

Query block: Same again, this time with `CC1=CC(=O)C=CC1=Nc1cc(Cl)c(O)c(Cl)c1`
Result block: 83.7

Query block: Please do the same for O=C1c2ccccc2N2OC3(N4CCCC4)CCCCC3C12c1ccccc1 (centres undefined) as well.
Result block: 74.7

Query block: Same question for `CN(C)CCNC(=Cc1ccc2ccccc2[n+]1C)NCCN(C)C` please.
Result block: 19.4

---

Listing of entries alongside the reported growth inhibition.
- assay overview: NCI Yeast Anticancer Drug Screen. Data for the rad52 strain (AID 147);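 note: 0% = growth of vehicle-treated control cultures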
- experimental context: S. cerevisiae rad52 mutant growth inhibition; at 1.2 µM; stronger effect = higher value
About 79,000 compounds went through this panel and 15% of them were active in at least one assay; those are over-represented in the sample as a whole.
Value expressed in %; do not type the unit.

Below are worked cases with known answers.
{"compound": "Brc1ccc(B2Nc3ccccc3N2)cc1", "value measured": 3}
{"compound": "CCOP(=O)(OCC)/C(C#N)=C/c1cccc(Oc2ccccc2)c1", "value measured": -17}
{"compound": "COC1/C=C\\C=C(/C)C(=O)NC2=CC(=O)C(=O)C(=C2O)CC(C)CC(OC)C(O)C(C)/C=C(\\C)C1OC(N)=O (stereo unspecified)", "value measured": 24}
{"compound": "Oc1c2c(c(O)c3ccccc13)C1(N=N2)c2ccccc2Oc2ccccc21", "value measured": 20}
{"compound": "O=C1C=C(Br)C(=O)c2ccccc21", "value measured": 6}

Consider now this further compound.
Query block: Need growth inhibition of `CCN(CC)CCC(=O)Nc1ccc2sc3ccccc3c(=O)c2n1` , thanks.
Result block: 33
